B1: Homeobox protein SIX6, residues 134 to 184; numbered along this chain, O95475 (parent)
chain: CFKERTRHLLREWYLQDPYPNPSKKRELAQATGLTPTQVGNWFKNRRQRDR

Variants of: B1
run_description: abundance fitness (aPCA) (normalised: wild type 0, dead -1); higher = more abundant; growth selection in yeast, the domain comes from the species named
experimental_parameters: Homo sapiens
Records here are stratified by abundance fitness; strata: zone 1 = under -0.6, zone 2 = from -0.6 up to -0.2, zone 3 = -0.2 and over

mutation_notation: N41M
label_value: zone 2

State the band of S23D
zone 3

Consider G40M . To which abundance fitness class does it belong?
zone 2

Which class does K24R fall in?
zone 3

Band assignment needed for K25T please.
zone 3

Quick check: band for E27H
zone 1

Consider Q38F . To which abundance fitness class does it belong?
zone 1

Quick check: band for R49L
zone 2

Kindly identify the class of R51L .
zone 2

Would you mind sorting T37M into the appropriate category?
zone 2

Dear colleague, I would appreciate it if you could identify the bin for K25R and reply at your convenience.
zone 3

Kindly identify the class of K24W .
zone 2

From: the Human Domainome abundance scans (Beltran et al. 2025)
